- Test system: Escherichia coli IAI1
- Procedure Summary: fold change of Cadaverine concentration vs plate DMSO controls (fold change (ratio)); higher = more amine produced, active = hit call of the paper (significant change in both replicates, either direction)
- Setup Conditions: incubation time: 27 h, anaerobic, 37 °C
Counter-ions that a name gives are not always drawn.
fold change of Cadaverine concentration for assorted compounds
Returns: the value as a bare number; no unit string appended.

Compound	Quantitative Result
CO/N=C(\C(=O)N[C@@H]1C(=O)N2C(C(=O)[O-])=C(C[n+]3ccn4ncccc43)CS[C@H]12)c1nsc(N)n1 [Cefozopran hydrochloride] (20 µM)	2
O=C(NCC1CCCCN1)c1cc(OCC(F)(F)F)ccc1OCC(F)(F)F (stereo unspecified) [Flecainide acetate] (20 µM)	0.987
OC(CNCC(O)C1CCc2cc(F)ccc2O1)C1CCc2cc(F)ccc2O1 (stereo unspecified) [Nebivolol hydrochloride] (20 µM)	0.955
CC(C)(C)c1ccc(C(=O)CCCN2CCC(OC(c3ccccc3)c3ccccc3)CC2)cc1 [Ebastine] (20 µM)	1.01
CC(=O)OC(C)OC(=O)C(C)c1ccc(-c2ccccc2)c(F)c1 (stereo unspecified) [Flurbiprofen axetil] (20 µM)	1.07

Would you kindly share the measured fold change of Cadaverine concentration for CCc1c2c(nc3ccc(OC(=O)N4CCC(N5CCCCC5)CC4)cc13)-c1cc3c(c(=O)n1C2)COC(=O)[C@]3(O)CC [Irinotecan hydrochloride trihydrate] (20 µM) ?
0.994

Another compound to check: CC1=Nc2ccc(Cl)cc2S(=O)(=O)N1 [Diazoxide] (20 µM)
0.943

----------
- System: Escherichia coli IAI1
- Procedure Summary: fold change of Putrescine concentration vs plate DMSO controls (fold change (ratio)); higher = more amine produced, active = hit call of the paper (significant change in both replicates, either direction)
- Setup Conditions: incubation time: 27 h, anaerobic, 37 °C
Threshold rule: fold change of Putrescine concentration greater than or equal to 1 is 1; below that, -1.

Compound	Group Label
Nc1ncn(C2OC(CO)C(O)C2O)c(=O)n1 (centres undefined) [Azacytidine-5] (20 µM)	-1
N[C@H](Cc1ccccc1)C(=O)O [D-phenylalanine] (20 µM)	1

Let's switch to this compound now.
Threshold query (fold change of Putrescine concentration >= 1) on O=S(=O)(O)CCS [Coenzyme M] (20 µM)
1

----------
fold change of Putrescine concentration for assorted compounds
- System: Klebsiella aerogenes DSM 30053
- Procedure Summary: fold change of Putrescine concentration vs plate DMSO controls (fold change (ratio)); higher = more amine produced, active = hit call of the paper (significant change in both replicates, either direction)
- Setup Conditions: incubation time: 27 h, anaerobic, 37 °C
Structures can show the parent of a compound that is named as a salt.
Returns: the value as a bare number; no unit string appended.

Would you kindly share the measured fold change of Putrescine concentration for O=C1c2c(O)ccc(O)c2C(=O)c2c(NCCNCCO)ccc(NCCNCCO)c21 [Mitoxantrone dihydrochloride] (20 µM) ?
1.02

Another compound to check: CS(=O)(=O)OCCCCOS(C)(=O)=O [Busulfan] (20 µM)
0.962

Another compound to check: OC[C@@H](O)[C@@H](O[C@@H]1O[C@H](CO)[C@H](O)[C@H](O)[C@H]1O)[C@H](O)[C@@H](O)CO [Lactitol] (50 µM)
1.02

Another compound to check: CCNC(=O)CCC/C=C\C[C@@H]1[C@@H](/C=C/[C@@H](O)CCc2ccccc2)[C@H](O)C[C@@H]1O [Bimatoprost] (20 µM)
1.03

Another compound to check: c1ccc2c(c1)ccc1ccccc12 [Phenanthrene] (20 µM)
0.817

Another compound to check: NC12CC3CC(CC(C3)C1)C2 [Adamantamine fumarate] (20 µM)
0.993

Another compound to check: C[C@H](Cc1cc2c(c(C(N)=O)c1)N(CCCO)CC2)NCCOc1ccccc1OCC(F)(F)F [Silodosin] (20 µM)
0.992

Another compound to check: CC(C)(C)NC[C@H](O)COc1nsnc1N1CCOCC1 [Timolol maleate salt] (20 µM)
1.01

----------
fold change of Histamine concentration for assorted compounds
- Tested on: Klebsiella aerogenes DSM 30053
- Procedure Summary: fold change of Histamine concentration vs plate DMSO controls (fold change (ratio)); higher = more amine produced, active = hit call of the paper (significant change in both replicates, either direction)
- Setup Conditions: incubation time: 27 h, anaerobic, 37 °C
Structures can show the parent of a compound that is named as a salt.
Returns: the value as a bare number; no unit string appended.

Compound	fold change of Histamine concentration
Nc1nc(O)c2ncn(CCC(CO)CO)c2n1 [Penciclovir] (20 µM)	0.824

Would you kindly share the measured fold change of Histamine concentration for O=C(O)Cc1csc(-c2ccc(Cl)cc2)n1 [Fenclozic acid] (20 µM) ?
1.05

Another compound to check: Oc1c(Cl)cc(Cl)c(Cl)c1Cc1c(O)c(Cl)cc(Cl)c1Cl [Hexachlorophene] (20 µM)
1.17

Another compound to check: CN1CCC(=C2c3ccccc3CCc3cccnc32)CC1 [Azatadine maleate] (20 µM)
1.05

Another compound to check: CCCC(=O)Nc1ncnc2c1ncn2[C@@H]1O[C@@H]2COP(=O)(O)O[C@H]2[C@H]1OC(=O)CCC [Bucladesine sodium salt] (20 µM)
0.931

Another compound to check: CCCCCCOc1ccccc1C(N)=O [Exalamide] (20 µM)
0.934

Another compound to check: Cc1onc(-c2c(Cl)cccc2Cl)c1C(=O)N[C@@H]1C(=O)N2[C@@H]1SC(C)(C)[C@@H]2C(=O)O [Dicloxacillin sodium salt hydrate] (20 µM)
1.01

Another compound to check: CO[C@H]1C[C@H](O[C@H]2[C@H](C)[C@@H](O[C@@H]3O[C@H](C)C[C@H](N(C)C)[C@H]3OC(C)=O)[C@@H](C)C[C@@]3(CO3)C(=O)[C@H](C)[C@@H](OC(C)=O)[C@@H](C)[C@@H](C)OC(=O)[C@@H]2C)O[C@@H](C)[C@@H]1OC(C)=O [Troleandomycin] (20 µM)
0.976

----------
fold change of Putrescine concentration for assorted compounds
- Test system: Klebsiella aerogenes DSM 30053
- Procedure Summary: fold change of Putrescine concentration vs plate DMSO controls (fold change (ratio)); higher = more amine produced, active = hit call of the paper (significant change in both replicates, either direction)
- Setup Conditions: incubation time: 27 h, anaerobic, 37 °C
Structures can show the parent of a compound that is named as a salt.

Compound	fold change of Putrescine concentration
CC1(C)O[C@@H]2C[C@H]3[C@@H]4CCC5=CC(=O)C=C[C@]5(C)[C@H]4[C@@H](O)C[C@]3(C)[C@]2(C(=O)CO)O1 [Desonide] (20 µM)	0.991 (inactive)
CCCC(CCC)C(=O)O [Valproic acid] (20 µM)	0.971 (inactive)
N#Cc1cc(NC(=O)C(=O)O)c(Cl)c(NC(=O)C(=O)O)c1 [Lodoxamide] (20 µM)	1.01 (inactive)
N=C(N)NS(=O)(=O)c1ccc(N)cc1 [Sulfaguanidine] (20 µM)	0.853 (inactive)
C#Cc1cccc(Nc2ncnc3cc(OCCOC)c(OCCOC)cc23)c1 [Erlotinib] (20 µM)	1.04 (inactive)

Would you kindly share the measured fold change of Putrescine concentration for CCN(CC)CC(=O)Nc1c(C)cccc1C [Lidocaine hydrochloride] (20 µM) ?
1.01 (inactive)

Another compound to check: CC(=O)O[C@H]1C(=O)[C@@]2(C)[C@H]([C@H](OC(=O)c3ccccc3)[C@]3(O)C[C@H](OC(=O)[C@H](O)[C@@H](NC(=O)c4ccccc4)c4ccccc4)C(C)=C1C3(C)C)[C@]1(OC(C)=O)CO[C@@H]1C[C@@H]2O [Paclitaxel] (20 µM)
0.969 (inactive)

----------
- Tested on: Ruminococcus gnavus DSM 108212
- Procedure Summary: growth (OD595) fold change vs plate DMSO controls (fold change (ratio)); higher = more growth
- Setup Conditions: incubation time: 27 h, anaerobic, 37 °C
Counter-ions that a name gives are not always drawn.
growth for assorted compounds

Recorded results for 3 compounds are shown here.
Compound	growth
CC(N)CCCC(C)(C)O (centres undefined) [Heptaminol hydrochloride] (20 µM)	1.12
c1coc(CNc2ncnc3[nH]cnc23)c1 [Kinetin] (20 µM)	0.855
CO/N=C1\CN(c2nc3c(cc2F)c(=O)c(C(=O)O)cn3C2CC2)CC1CN (centres undefined) [Gemifloxacin mesylate] (20 µM)	0.376

Would you kindly share the measured growth for CC1(C)O[C@@H]2C[C@H]3[C@@H]4CCC5=CC(=O)C=C[C@]5(C)[C@H]4[C@@H](O)C[C@]3(C)[C@]2(C(=O)CO)O1 [Desonide] (20 µM) ?
1.21

----------
- Tested on: Escherichia coli IAI1
- Procedure Summary: fold change of Cadaverine concentration vs plate DMSO controls (fold change (ratio)); higher = more amine produced, active = hit call of the paper (significant change in both replicates, either direction)
- Setup Conditions: incubation time: 27 h, anaerobic, 37 °C
Where a name gives a salt, the structure may show the parent alone.
Measurement Name: fold change of Cadaverine concentration
Returns: the value as a bare number; no unit string appended.

Recorded results for 5 molecules are shown here.
Molecule	Quantitative Result
CCCc1nc2c(C)cc(-c3nc4ccccc4n3C)cc2n1Cc1ccc(-c2ccccc2C(=O)O)cc1 [Telmisartan] (20 µM)	1.05
CN(C)CCOc1ccc(/C(=C(/CCCl)c2ccccc2)c2ccccc2)cc1 [Toremifene] (20 µM)	0.98
Nc1ncnc2c1ncn2C1OC(COP(=O)(O)O)C(O)C1O (centres undefined) [Adenosine 5'-monophosphate monohydrate] (20 µM)	0.991
CCCCOC(=O)c1ccccc1Nc1cccc(C(F)(F)F)c1 [Ufenamate] (20 µM)	1.03
Cc1ccc(S(=O)(=O)NC(=O)NN2CC3CCCC3C2)cc1 (centres undefined) [Gliclazide] (20 µM)	0.883

Item: CCN1CCCC1CNC(=O)c1cc(S(=O)(=O)CC)c(N)cc1OC (centres undefined) [Amisulpride] (20 µM) Test system: Escherichia coli IAI1 Read-out: fold change of Cadaverine concentration Value: ?
0.987

Another molecule to check: Cc1onc(-c2ccccc2Cl)c1C(=O)N[C@@H]1C(=O)N2[C@@H]1SC(C)(C)[C@@H]2C(=O)O [Cloxacillin sodium salt] (20 µM)
0.999

Another molecule to check: CN(Cc1cnc2nc(N)nc(N)c2n1)c1ccc(C(=O)N[C@@H](CCC(=O)O)C(=O)O)cc1 [Amethopterin] (20 µM)
1

Another molecule to check: Cn1cc(C(=O)Nc2ccccc2-c2cc(F)c(F)c(F)c2)c(C(F)F)n1 (20 µM)
1.01

Another molecule to check: C[C@@H]1O[C@@H](O[C@H]2[C@H](Oc3cc(O)c(C(=O)CCc4ccc(O)cc4)c(O)c3)O[C@H](CO)[C@@H](O)[C@@H]2O)[C@H](O)[C@H](O)[C@H]1O [Naringin Dihydrochalcone] (50 µM)
1.13

Another molecule to check: OC[C@H]1O[C@@H](O[C@H]2[C@H](O)[C@@H](O)[C@H](O)O[C@@H]2CO)[C@H](O)[C@@H](O)[C@H]1O [Lactose] (50 µM)
0.984

Another molecule to check: Nc1nc(O)c2ncn(CCC(CO)CO)c2n1 [Penciclovir] (20 µM)
0.996

Another molecule to check: C[C@@H]1C[C@H]2[C@@H]3CCC4=CC(=O)C=C[C@]4(C)[C@@]3(Cl)[C@@H](O)C[C@]2(C)[C@@]1(OC(=O)c1ccco1)C(=O)CCl [Mometasone furoate] (20 µM)
1.03

Another molecule to check: CC(=O)O[C@H]1C(=O)[C@@]2(C)[C@H]([C@H](OC(=O)c3ccccc3)[C@]3(O)C[C@H](OC(=O)[C@H](O)[C@@H](NC(=O)c4ccccc4)c4ccccc4)C(C)=C1C3(C)C)[C@]1(OC(C)=O)CO[C@@H]1C[C@@H]2O [Paclitaxel] (20 µM)
1.03

Source of measurements: the supplement of paper PMC12494721
